Values compiled from the supplement of paper PMC12350171.

Test system: P. vulgatus WT;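 note: active when median AUC fell below 0.1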
Experiment description: growth AUC normalised to DMSO control (median) (fraction of control); higher = less growth inhibition, active = hit call of the paper
Condition details: 20 µM
Counter-ions that a name gives are not always drawn.
Quantity: growth AUC normalised to DMSO control
// return a plain number; no unit text

Query: Return growth AUC normalised to DMSO control for the following compound: O=P1(N(CCCl)CCCl)NCCCO1 (configuration not stated) [Cyclophosphamide]
Response: 1

Query: Could you please provide reported growth AUC normalised to DMSO control for Nc1nc(N)nc(NC2CC2)n1 [Cyromazine] ? Thanks!
Response: 1.01

Query: Note down growth AUC normalised to DMSO control recorded for COc1ccc(CCN2CCC(Nc3nc4ccccc4n3Cc3ccc(F)cc3)CC2)cc1 [Astemizole]
Response: 0.986

Query: Please look at this compound and report its growth AUC normalised to DMSO control: C[C@]12CCC(=O)C=C1C=C[C@@H]1[C@@H]2CC[C@@]2(C)[C@H]1CC[C@@]2(O)CCC(=O)O [Canrenoic acid potassium salt]
Response: 0.996

Query: For the compound O=C(CCCN1CCC2(CC1)C(=O)NCN2c1ccccc1)c1ccc(F)cc1 [Spiperone] , give its measured growth AUC normalised to DMSO control value.
Response: 0.988

Query: Report growth AUC normalised to DMSO control, nothing else, for this compound: O=C(CCCN1CCC(n2c(=O)[nH]c3ccccc32)CC1)c1ccc(F)cc1 [Benperidol]
Response: 1.02

Query: Provide one value: measured growth AUC normalised to DMSO control of COc1cc2c(c(OC)c1OC)-c1ccc(OC)c(=O)cc1[C@@H](NC(C)=O)CC2 [Colchicine]
Response: 0.986
